# Assay Explanation: Chemical stability in HD-MB03 cell culture media
# Format: physicochemical
# Condition Context: cell media pH 7.7
Endpoint Label: t1/2 HD-MB03 cell media (h)
Field format: number, assumed h, no unit text.

Asked: Look up and report measured t1/2 HD-MB03 cell media for this entry: Cc1sc2c(c1C)C(c1ccc(Cl)cc1)=N[C@@H](CC(=O)NCCCCNC(=O)COc1cccc3c1C(=O)N(C1CCC(=O)NC1=O)C3=O)c1nnc(C)n1-2 (stereo partly shown)
Given back: 2.1

Asked: Look up and report measured t1/2 HD-MB03 cell media for this entry: Nc1ccc(C2CCC(=O)NC2=O)cc1 (stereo not shown)
Given back: 16.4

Asked: Look up and report measured t1/2 HD-MB03 cell media for this entry: O=C1CCC(c2ccccc2)C(=O)N1 (stereo not shown) [2a, phenyl glutarimide]
Given back: 20.8

Asked: Look up and report measured t1/2 HD-MB03 cell media for this entry: COc1ccc(C2CCC(=O)NC2=O)cc1 (stereo not shown)
Given back: 19.7

Hey, just so you know, these numbers are from paper PMC8648984.
